Structures can show the parent of a compound that is named as a salt.
List of melting point values.

Reference set, count: 5
[
  {
    "compound": "CCN1CCN(c2nc(-c3ccc(C4(CCO)CCOCC4)cc3)cc3ccccc23)CC1 (as salt: hydrochloride)",
    "melting point": "138 to 139 °C"
  },
  {
    "compound": "OCCOc1ccc(-c2cc3ccsc3c(N3CCN(CCO)CC3)n2)cc1 (as salt: oxalate)",
    "melting point": "105 to 107 °C"
  },
  {
    "compound": "CCN1CCN(c2nc(-c3ccc(N4CCC(O)CC4)nc3)cc3ccsc23)CC1 (as salt: hydrochloride)",
    "melting point": "208 to 210 °C"
  },
  {
    "compound": "CCN1CCN(c2nc(-c3ccc(OCCN(C)C)cc3)cc3ccccc23)CC1 (as salt: hydrochloride)",
    "melting point": "153 to 158 °C"
  },
  {
    "compound": "CCN1CCN(c2nc(/C=C/c3cncc(N4CCOCC4)n3)cc3ccccc23)CC1 (as salt: oxalate)",
    "melting point": "173 to 175 °C"
  }
]

Using the record for CCN1CCN(c2nc(C#CC(=O)c3ccccc3)cc3ccccc23)CC1 (as salt: oxalate) , report its melting point. 161 to 163 °C

Please give the result for CCN1CCN(c2nc(C(C)(O)c3ccc(OC)cc3)cc3ccccc23)CC1 (stereo not shown) (as salt: oxalate) too. 179 to 181 °C
